# STUDY TARGET: human A2A receptor (A2AR) (Homo sapiens (Human))
# Sequence (P29274 whole entry): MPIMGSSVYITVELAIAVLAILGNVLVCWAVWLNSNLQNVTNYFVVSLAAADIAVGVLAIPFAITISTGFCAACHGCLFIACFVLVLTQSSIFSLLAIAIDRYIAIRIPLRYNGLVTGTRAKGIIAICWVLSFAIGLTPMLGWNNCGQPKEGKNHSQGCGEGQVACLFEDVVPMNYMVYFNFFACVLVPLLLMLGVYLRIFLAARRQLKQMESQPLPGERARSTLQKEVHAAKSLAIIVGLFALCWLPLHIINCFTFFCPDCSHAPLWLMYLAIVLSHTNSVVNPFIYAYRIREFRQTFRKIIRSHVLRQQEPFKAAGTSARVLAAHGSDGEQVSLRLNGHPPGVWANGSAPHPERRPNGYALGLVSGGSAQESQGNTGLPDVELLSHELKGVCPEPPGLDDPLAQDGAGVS
# ASSAY METHOD TEXT: Luciferase reporter assay (HEK293-A2AR-luc2p/CRE/Hygro cells)
# Assay type: cell-based
# RECORDED CONDITIONS: 3 nM CGS21680, 5 h incubation
Label scheme for IC50: bin 1: < 4 nM; bin 2: ≥ 4 nM and < 10 nM; bin 3: ≥ 10 nM

>  <COMPOUND>
C[C@](C(=O)O)(c1ccccc1)n1ncc2c1nc(N)n1nc(-c3ccco3)nc21 [Intermediate-Ib]

>  <CLASS>
bin 3

$$$$
>  <COMPOUND>
CC(C(=O)N[C@@H]1CC[C@@H](O)C1)(c1ccccc1)n1ncc2c1nc(N)n1nc(-c3ccco3)nc21 (some centres unmarked)

>  <CLASS>
bin 3

$$$$
>  <COMPOUND>
Cc1ccnc(CNC(=O)[C@@](C)(c2ccccc2)n2ncc3c2nc(N)n2nc(-c4ccco4)nc32)c1 [Example 110B]

>  <CLASS>
bin 1

$$$$
>  <COMPOUND>
C[C@](C(=O)N[C@H]1CC[C@H](O)CC1)(c1ccccc1)n1ncc2c1nc(N)n1nc(-c3ccco3)nc21 [Example 52B]

>  <CLASS>
bin 2

$$$$
>  <COMPOUND>
COc1ccc(C(C)(C(=O)NCC2(O)COC2)n2ncc3c2nc(N)n2nc(-c4ccco4)nc32)cc1 (centres unmarked)

>  <CLASS>
bin 3

$$$$
>  <COMPOUND>
CC(C(=O)N[C@H]1COC[C@H]1O)(c1ccccc1)n1ncc2c1nc(N)n1nc(-c3ccco3)nc21 (some centres unmarked)

>  <CLASS>
bin 3

$$$$
>  <COMPOUND>
CC(C(=O)NCC1(O)CCCCC1)(c1ccccc1)n1ncc2c1nc(N)n1nc(-c3ccco3)nc21 (centres unmarked)

>  <CLASS>
bin 2

$$$$
>  <COMPOUND>
CC1(O)CCC(NC(=O)[C@](C)(c2ccccc2)n2ncc3c2nc(N)n2nc(-c4ccco4)nc32)CC1 (stereo in doubt) [Example 69A]

>  <CLASS>
bin 3

$$$$
>  <COMPOUND>
CC(C(=O)Nc1ccncc1)(c1ccccc1)n1ncc2c1nc(N)n1nc(-c3ccco3)nc21 (centres unmarked)

>  <CLASS>
bin 3

$$$$
>  <COMPOUND>
COc1ccccc1C(C)(C(=O)NCC1(O)COC1)n1ncc2c1nc(N)n1nc(-c3ccco3)nc21 (centres unmarked)

>  <CLASS>
bin 1

$$$$
>  <COMPOUND>
CC(C(=O)NCc1ccccc1)(c1ccccc1)n1ncc2c1nc(N)n1nc(-c3ccco3)nc21 (centres unmarked)

>  <CLASS>
bin 3

$$$$
>  <COMPOUND>
Cc1ccc(CNC(=O)C(C)(c2ccccc2)n2ncc3c2nc(N)n2nc(-c4ccco4)nc32)nc1 (centres unmarked)

>  <CLASS>
bin 1

$$$$
>  <COMPOUND>
CC(C(=O)NCCc1ccccc1)(c1ccccc1)n1ncc2c1nc(N)n1nc(-c3ccco3)nc21 (centres unmarked)

>  <CLASS>
bin 3

$$$$
>  <COMPOUND>
CC(C)(C(=O)NCC1(O)COC1)n1ncc2c1nc(N)n1nc(-c3ccco3)nc21

>  <CLASS>
bin 3

$$$$
>  <COMPOUND>
COc1ccccc1C(C)(C(=O)N[C@H]1CC[C@](C)(O)CC1)n1ncc2c1nc(N)n1nc(-c3ccco3)nc21 (some centres unmarked)

>  <CLASS>
bin 1

$$$$
>  <COMPOUND>
C[C@](C(=O)NC1CCSCC1)(c1ccccc1)n1ncc2c1nc(N)n1nc(-c3ccco3)nc21 [Example 145B]

>  <CLASS>
bin 2

$$$$
>  <COMPOUND>
CC(C(=O)N[C@H]1CCCC[C@H]1O)(c1ccccc1)n1ncc2c1nc(N)n1nc(-c3ccco3)nc21 (some centres unmarked) [Example 56]

>  <CLASS>
bin 3

$$$$
>  <COMPOUND>
CC(C(=O)N[C@@H]1CCCOC1)(c1ccccc1)n1ncc2c1nc(N)n1nc(-c3ccco3)nc21 (some centres unmarked)

>  <CLASS>
bin 2

$$$$
>  <COMPOUND>
CC(C(=O)NCC1CCCOC1)(c1ccccc1)n1ncc2c1nc(N)n1nc(-c3ccco3)nc21 (centres unmarked)

>  <CLASS>
bin 3

$$$$
>  <COMPOUND>
CC(C(=O)NCCC1CCOCC1)(c1ccccc1)n1ncc2c1nc(N)n1nc(-c3ccco3)nc21 (centres unmarked)

>  <CLASS>
bin 2

$$$$
>  <COMPOUND>
CC(C(=O)N[C@H]1COC[C@@H]1O)(c1ccccc1)n1ncc2c1nc(N)n1nc(-c3ccco3)nc21 (some centres unmarked)

>  <CLASS>
bin 3

$$$$
>  <COMPOUND>
C[C@](C(=O)NC1CCC(=O)CC1)(c1ccccc1)n1ncc2c1nc(N)n1nc(-c3ccco3)nc21 [Example 128B]

>  <CLASS>
bin 2

$$$$
>  <COMPOUND>
C[C@](C(=O)N[C@H]1COC[C@H]1O)(c1ccccc1)n1ncc2c1nc(N)n1nc(-c3ccco3)nc21 [Example 107B]

>  <CLASS>
bin 3

$$$$
>  <COMPOUND>
Cc1cccnc1CNC(=O)[C@@](C)(c1ccccc1)n1ncc2c1nc(N)n1nc(-c3ccco3)nc21 [Example 111B]

>  <CLASS>
bin 1

$$$$
>  <COMPOUND>
CCOc1ccccc1CNC(=O)C(c1ccccc1)n1ncc2c1nc(N)n1nc(-c3ccco3)nc21 (centres unmarked)

>  <CLASS>
bin 1

$$$$
>  <COMPOUND>
COc1cccnc1CNC(=O)C(C)(c1ccccc1)n1ncc2c1nc(N)n1nc(-c3ccco3)nc21 (centres unmarked)

>  <CLASS>
bin 1

$$$$
>  <COMPOUND>
Nc1nc2c(cnn2C(C(=O)NCc2ccccc2)c2ccccc2)c2nc(-c3ccco3)nn12 (centres unmarked)

>  <CLASS>
bin 1

$$$$
>  <COMPOUND>
CC(C(=O)N[C@@H]1CCC[C@@H]1O)(c1ccccc1)n1ncc2c1nc(N)n1nc(-c3ccco3)nc21 (some centres unmarked)

>  <CLASS>
bin 1

$$$$

FYI, the data here is from patent US11472811B2.
